details: in chloroform, 288.15 K

{"columns": ["compound", "solubility (mole fraction)"],
 "data": [
  ["CCC(C)n1ncn(-c2ccc(N3CCN(c4ccc(OC[C@H]5CO[C@](Cn6cncn6)(c6ccc(Cl)cc6Cl)O5)cc4)CC3)cc2)c1=O (mixture of isomers)", 0.0459]
]}

Reference source: BigSolDB 2.1
